- Test details: self-splicing fitness, log relative to wild type (ln ratio); higher = more splicing; Tetrahymena group I intron in knt gene, E. coli kanamycin selection, DiMSum; sequences stand for … in CUCUCU…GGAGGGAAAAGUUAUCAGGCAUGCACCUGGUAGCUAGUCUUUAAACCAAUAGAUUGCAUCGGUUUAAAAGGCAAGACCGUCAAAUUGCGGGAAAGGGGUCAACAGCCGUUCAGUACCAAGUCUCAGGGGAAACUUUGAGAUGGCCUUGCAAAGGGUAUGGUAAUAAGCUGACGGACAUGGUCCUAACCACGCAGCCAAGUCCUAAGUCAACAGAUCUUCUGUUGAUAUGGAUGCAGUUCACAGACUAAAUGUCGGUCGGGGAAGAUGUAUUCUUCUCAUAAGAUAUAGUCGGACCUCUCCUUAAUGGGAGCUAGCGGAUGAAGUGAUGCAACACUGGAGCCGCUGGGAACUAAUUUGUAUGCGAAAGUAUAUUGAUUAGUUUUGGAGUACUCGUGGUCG;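 note: selection with 25 µg/mL kanamycin versus none on LB agar overnight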
- Measurement context: 30 °C
Assay readout: self-splicing fitness (ln)

>>> df
         sequence_chain  endpoint_value
0  CAAAAGCAAUAUUACGUUUG           -3.08
1  AGUCAGCAAUAUUACGGUUC           -2.98
2  ACAGAGCAAUAUUACGAUUU           -3.03
